System: HOP-92 NSCLC
Assay: NCI-60 one-dose screen, 48 h
Conditions: 10 µM unless noted
The panel holds about 83,000 compounds, 20% with a hit somewhere; the sample as a whole holds those more often. Activity calls are given as the source filed them. Rule for the calls: active = growth percent below 10; inactive = the rest.
Answer with one of the outcomes active, inactive

Give the logged outcome of this assay for the following molecule: NS(=O)(=O)c1ccc(CN=C2NC(=O)S/C2=C\c2ccc(Br)cc2)cc1
inactive

Give the logged outcome of this assay for the following molecule: CCCCCCN(CCCCCC)C(=N)c1ccnc2ccccc12
inactive

Give the logged outcome of this assay for the following molecule: Cc1cc(Nc2ccc(C)c(Cl)c2)n2nc(C(F)(F)F)nc2n1
active

Give the logged outcome of this assay for the following molecule: CCCOc1cc2ccccc2cc1C(=O)Nc1nc(N)c2c(ccc3nccc32)[nH]1
active

Give the logged outcome of this assay for the following molecule: CC(C)(C)c1cc(C(C)(C)C)cc(S(=O)(=O)Nc2cc3ccccc3cc2C(=O)NCCN)c1
inactive

Give the logged outcome of this assay for the following molecule: Cc1cc(C)nc(SC2=C(Nc3ccc(O)cc3)C(=O)N(Cc3ccccc3)C2=O)n1
inactive

Give the logged outcome of this assay for the following molecule: Cc1c(/C=C/[N+](=O)[O-])ccc2c1[nH]c1ccccc12
inactive

Give the logged outcome of this assay for the following molecule: O=C(COc1ccc(-c2nc3cc(Cl)c(Cl)cc3[nH]2)cc1)N=Nc1c(O)[nH]c2ccccc12
active

Give the logged outcome of this assay for the following molecule: c1ccc(Cn2cc(-c3nc4ccccc4s3)c3cccnc32)cc1
inactive

Give the logged outcome of this assay for the following molecule: N#CN1CC[C@H](C(=O)Nc2cc3cc(C(N)=O)ccc3cn2)C1
active

Give the logged outcome of this assay for the following molecule: COc1cc(/C=C/c2cc(/C=C/c3ccc(O)c(OC)c3)n(-c3c(C)cccc3C)c(=O)n2)ccc1O
active

Give the logged outcome of this assay for the following molecule: O=c1c(F)cn(Cc2ccccc2CCl)c(=O)n1Cc1ccccc1CCl
active

Give the logged outcome of this assay for the following molecule: N#Cc1nnn(-c2ccc(S(N)(=O)=O)cc2)c1NCC(=O)c1ccccc1
inactive

Give the logged outcome of this assay for the following molecule: CCCN1CCN(c2ccc3nc(-c4ccc5nc(-c6ccc(OCC)cc6)[nH]c5c4)[nH]c3c2)CC1
inactive

Give the logged outcome of this assay for the following molecule: COc1cc2c(cc1O)CC[C@@H]1[C@@H]2CC[C@]2(C)[C@@H](OCCCN(C)C)CC[C@@H]12
active

Give the logged outcome of this assay for the following molecule: COc1ccc(S(=O)(=O)N2CCN(C)CC2)cc1NC(=O)c1[nH]c(C)c2c1CCCCC2=O
inactive

Give the logged outcome of this assay for the following molecule: C#CCOc1ccc2ncnc(Nc3cccc(CNC(=O)C=C)c3)c2c1
inactive

Source listed as PubChem BioAssay (NCI).
